Target: Follistatin-related protein 3 (Homo sapiens) (UniProt O95633)
Sequence (O95633 whole entry, looked up): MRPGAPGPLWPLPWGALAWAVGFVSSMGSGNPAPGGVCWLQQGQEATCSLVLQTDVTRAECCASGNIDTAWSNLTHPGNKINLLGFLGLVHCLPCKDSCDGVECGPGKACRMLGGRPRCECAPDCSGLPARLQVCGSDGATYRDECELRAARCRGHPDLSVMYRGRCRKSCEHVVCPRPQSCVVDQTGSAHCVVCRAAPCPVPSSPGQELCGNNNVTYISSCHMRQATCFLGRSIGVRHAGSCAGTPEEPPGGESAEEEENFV
Assay: FSTL3 binders on small-molecule microarrays, primary screen, biochemical, small-molecule microarray, 635 nm fluorescence (AID 1105);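 also: score merges emission near 667 nm and signal to noise per printed spot across three slides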
Settings: FSTL3 binding, higher = more signal
Listed compounds paired with reported composite z-score

compound	composite z-score
CCC[C@@H]1C=C(C(=O)OCC)[C@H](c2ccccc2)N1S(=O)(=O)c1ccc(C)cc1	1.25
CCCCC(O)C1C=CC2C(=O)NC(=O)C2N1Nc1ccc(Cl)cc1Cl (centres undefined)	-0.125
C=C(COC)/C(=C/C[C@H](OC(=O)c1ccncc1)c1cccc(OCCO)c1)c1cnc2ccccc2c1	1.45
COCCOC(=O)N1C(=O)[C@@]2(c3cc(C#CC4(O)CCCCCC4)ccc31)[C@H](c1ccc(OCCO)cc1)N1[C@H](c3ccccc3)[C@H](c3ccccc3)OC(=O)[C@H]1[C@@H]2C(=O)N1CCCCCCC1	1.51

---

Assay: HepG2 cell viability effects, profiling panel, calcein-AM fluorescence, 48 h, basal (AID 1164); also: test concentration not given here
Conditions: higher = more signal
Would you mind labelling by z-score? At or over 0.2 is 1, under is -1.

compound	answer.label
CN1C=C(C(=O)OCCS(C)(=O)=O)C(C(=O)OCCS(C)(=O)=O)=CC(CCCO)=CC1c1ccc(CN2CCCC2)cc1 (stereo unspecified)	1
CO[C@H]1O[C@H](CO)[C@@H](OC(=O)Nc2ccc(C(F)(F)F)cc2)[C@H](OC(=O)Nc2ccccc2-c2ccccc2)[C@@H]1OC(=O)Nc1ccccc1-c1ccccc1	-1
CN1C(=O)C2C(C1=O)C1C=C(c3ccc(CO)cc3)C2C(c2cccs2)N1C (stereo unspecified)	-1
Cc1ccc(S[C@]2(C(=O)NCCN3CCOCC3)CC(=O)N(C3CCCCC3)[C@@H]2c2ccc(CO)cc2I)cc1	1
O=C1OCCC/C=C\[C@H]2OC34C=CCN(Cc5ccccc5)C(=O)[C@H]3N(CCCCCO)C(=O)[C@@H]4C12 (stereo partly specified)	1
C=CCOC(=O)[C@H]1[C@@H]2C(=O)O[C@@H](c3ccccc3)[C@@H](c3ccccc3)N2[C@@H](c2ccc(OCCOC(=O)[C@@H]3C[C@@H]4C(=O)N[C@@H](CC(C)C)C(=O)N4[C@@H]3c3ccc(O)cc3)cc2)[C@]12C(=O)Nc1ccc(I)cc12	1

---

Measured composite z-score values are reported for all entries that follow.
Molecular target: Torsin-1A (Homo sapiens) (UniProt O14656)
Sequence (O14656 whole entry, looked up): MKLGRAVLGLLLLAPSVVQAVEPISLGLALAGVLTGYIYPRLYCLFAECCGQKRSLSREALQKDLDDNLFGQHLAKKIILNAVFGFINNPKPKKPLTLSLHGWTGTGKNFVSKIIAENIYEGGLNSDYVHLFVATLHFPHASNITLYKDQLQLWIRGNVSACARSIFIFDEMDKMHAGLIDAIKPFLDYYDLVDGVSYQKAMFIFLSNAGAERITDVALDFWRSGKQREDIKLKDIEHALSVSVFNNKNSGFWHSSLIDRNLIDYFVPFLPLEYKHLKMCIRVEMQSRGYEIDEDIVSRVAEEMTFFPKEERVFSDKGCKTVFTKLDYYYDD
Test: small-molecule binders of mutant TOR1A in lysate, primary screen, cell lysate, small-molecule microarray, COS7 lysate, 635/667 nm fluorescence (AID 1150);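 also: score pools 667 nm emission and signal to noise measuring lysate protein binding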
Settings: COS7 hTOR1A mutant lysate, 635 nm fluorescence, higher = more signal
value.type: composite z-score

compound	recorded.number
C=C(/C(=C/C[C@@H](OC(C)=O)c1ccccc1OCCO)c1cc(C(=O)OC)ccc1OC)C(C)C	-0.461
COC(=O)[C@@]1(Cc2ccc(OC)cc2)[C@@H]2[C@@H](CC(=O)[C@H]2CC(=O)C(=O)N2CCCC2)CN1C(=O)c1ccccc1	1.27
C=C(CCCC)C(=O)CC[C@H](OC(C)=O)c1ccccc1OCCO	-0.447
CC[C@H](C)C(=O)O[C@H]1CC[C@]2(C)C3=C(CCC2C1(C)C)[C@]1(C)CC[C@H]([C@H](C)CCCC(C)C)[C@@]1(C)CC3 (stereo not given in full)	0.339
CCCC[C@@H]1C[C@H]1[C@@H](NC(=O)c1ccc(C(F)(F)F)cc1)c1ccc(C(=O)OC)cc1	3.93
COc1ccc([Si](C)(C)[C@H]2[C@H](CC(=O)N3Cc4ccccc4C[C@H]3CO)O[C@@]3(C(=O)N(Cc4cccc(N5C(=O)c6cccc7cccc5c67)c4)c4ccccc43)[C@@H]2C)cc1	0.736
CCN(CC)c1ccc(N2CC=CC34O[C@@H]5C=CCOC(=O)[C@@H]5[C@H]3C(=O)N(CCO)[C@@H]4C2=O)cc1 (stereo not given in full)	-0.669
CCC[C@@H]1C=C(C(=O)OCC)[C@H](c2ccccc2)N1S(=O)(=O)c1ccc(C)cc1	0.373
O=C1NC(=O)C2C1C=CC(C(O)c1ccc(F)cc1)N2Nc1ccccn1 (stereo not given)	0.0123
CC(C)=CCN(C(=O)C#Cc1ccccc1)[C@H](CO)c1ccccc1	-0.0045
CCCCN1CC=CC23O[C@@H]4/C=C\CCC(C)OC(=O)C4[C@H]2C(=O)N(C(C)CO)[C@@H]3C1=O (stereo not given in full)	-1.01
COC(=O)C(CC#Cc1ccc2c(c1)[C@]1(C(=O)N2)[C@H](c2ccc(O)cc2)N2[C@H](c3ccccc3)[C@H](c3ccccc3)OC(=O)[C@H]2[C@@H]1C(=O)N1CCc2cc(OC)c(OC)cc2C1)C(=O)OC	0.48
COc1ccc(CCNC(=O)[C@@H]2c3ccccc3C(=O)N(CC34CC5CC(CC(C5)C3)C4)[C@H]2c2ccc(CO)cc2)cc1	0.801
[N-]=[N+]=NCc1ccccc1[C@H]1OC(c2ccc(OCCCO)cc2)=N[C@@]1(Cc1ccccc1)C(=O)N1CCOCC1	1.17
CC1(C)OC[C@@]23C=C(Br)[C@@H](C[C@H]12)[C@@]1(CO1)C3=O	0.483

---

Molecular target: NADPH oxidase 2 (Homo sapiens) (UniProt P04839)
Sequence (P04839 whole entry, looked up): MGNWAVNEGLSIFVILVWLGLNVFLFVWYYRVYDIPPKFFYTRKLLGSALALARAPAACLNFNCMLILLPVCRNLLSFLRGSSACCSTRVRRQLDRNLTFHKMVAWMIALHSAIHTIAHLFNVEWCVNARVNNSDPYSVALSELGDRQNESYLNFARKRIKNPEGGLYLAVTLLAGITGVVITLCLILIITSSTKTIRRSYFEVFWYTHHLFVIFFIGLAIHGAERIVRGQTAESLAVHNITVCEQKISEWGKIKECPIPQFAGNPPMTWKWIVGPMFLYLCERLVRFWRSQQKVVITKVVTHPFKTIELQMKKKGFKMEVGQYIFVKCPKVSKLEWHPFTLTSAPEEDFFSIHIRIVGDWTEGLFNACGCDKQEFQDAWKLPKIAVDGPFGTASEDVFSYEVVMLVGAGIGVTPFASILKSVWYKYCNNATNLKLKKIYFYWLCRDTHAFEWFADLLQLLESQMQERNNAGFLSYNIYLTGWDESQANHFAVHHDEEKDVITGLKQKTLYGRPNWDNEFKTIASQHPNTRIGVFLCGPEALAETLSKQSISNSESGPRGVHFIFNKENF
Test: NOX2-dependent H2O2 signal modulators, primary screen, NOX inhibitor project, cell-based, HEK293-NOX2, PMA-stimulated, Amplex Red fluorescence (AID 1159); also: test concentration not given here
Conditions: 45 min, higher = more signal, called active from +8 up or from −8 down
Class yes: z-score at least 0.5. Class no: z-score below 0.5.

molecule	answer.label
C#CCN=C(N)N	no
Cc1ccccc1C(O)C1C=CC2C(=O)N(c3ccccc3)C(=O)C2N1Nc1ccccc1F (centres undefined)	no
CN1C=C(C(=O)OCCS(C)(=O)=O)C(C(=O)OCCS(C)(=O)=O)=CC(CCCO)=CC1c1ccc(CN2CCCC2)cc1 (centres undefined)	yes
COC(=O)[C@@]1(Cc2ccc(F)cc2)[C@H]2c3cc(C(=O)N(C)C)n(CCn4cc([N+](=O)[O-])nc4C)c3C[C@H]2CN1C(=O)c1ccccc1	yes
CCCCCCc1nc(-c2ccc(OC)nc2)cc2c1[Si](C(C)C)(C(C)C)OC2	no
CCCCNC(=O)c1ccc(C#C[Si](C)(C)C)c(OC(C)=O)c1	yes
Cc1ccc(F)cc1S(=O)(=O)N[C@@H]1CCN(Cc2ccc3c(c2)OCO3)C1	no
CCOC(=O)C1=C[C@@H](C(C)(C)C)N(S(=O)(=O)c2ccc(C)cc2)[C@H]1c1ccccc1Cl	no
COC(=O)C1=CC(CCCO)=CC(C2CC2)N(Cc2cccc(OC(F)(F)F)c2)C=C1C(=O)OC (centres undefined)	no
COC(=O)C(CC#Cc1ccc2c(c1)[C@]1(C(=O)N2)[C@H](c2ccc(O)cc2)N2[C@H](c3ccccc3)[C@H](c3ccccc3)OC(=O)[C@H]2[C@@H]1C(=O)N1CCc2cc(OC)c(OC)cc2C1)C(=O)OC	yes
C=CCC(OC(C)=O)[C@@H]1[C@@H](N(Cc2cccc3ccccc23)C(=O)c2ccc(C)cc2)c2cc(OCCCO)ccc2N1C(=O)c1ccc2ccccc2n1 (some centres undefined)	no
NCCCC[C@@H]1NC(=O)[C@H]2C[C@@H](C(=O)O)[C@@H](c3cccc(OCCO)c3)N2C1=O	yes
C=CCC(OC(C)=O)[C@@H]1[C@@H](N(Cc2ccc(-c3cccc(C(F)(F)F)c3)o2)C(=O)c2cccc3ccccc23)c2cc(OCCCO)ccc2N1C(=O)c1ccc2ccccc2c1 (some centres undefined)	no
COc1cc2c(cc1O)C(c1ccc(CN3CCCC3)cc1)N(Cc1ccc([N+](=O)[O-])o1)CC2 (centres undefined)	no

---

Assay: PSAC antagonists in infected red cells, primary screen, cell-based, P. falciparum Indochina, OD700, 1 h (AID 1154)
Settings: P. falciparum Indochina infected RBC osmotic lysis, higher = more signal, called active from +8 up or from −8 down
Rule: 1 for z-score not less than 1, -1 for anything less.

molecule	answer.label
CN(C)CCCC[C@@H]1NC(=O)[C@H]2C[C@@H](C(=O)NCc3ccc(F)cc3)[C@@H](c3ccc(O)cc3)N2C1=O	1
CN1C(=O)[C@]2(CCS(=O)(=O)c3ccccc3)N=C(c3ccc(OCCCO)cc3)O[C@@H]2c2ccccc21	1
CN(C)C(=O)[C@]1(Cc2ccccc2CN=[N+]=[N-])N=C(c2ccc(OCCCO)cc2)O[C@@H]1c1ccccc1N=[N+]=[N-]	1
CCCC=C(CCC)[C@@H](NC(=O)c1ccccc1)c1ccc(C(=O)OC)cc1	-1
C#CCN([C@H](/C=C/C1CC1)[C@@H](O)Cc1ccccc1)[C@@H](Cc1ccccc1)C(=O)OC	1
CC(C)C[C@H]1NC(=O)[C@H](Cc2ccccc2)NC(=O)[C@@]23C(=O)N[C@@H](Cc4ccccc4)C2[C@H](C)[C@@]2(C)O[C@H]2C3/C=C/C/C=C\CNC1=O (stereo partly drawn)	-1
O=C1C2C=CC(C(O)c3cccs3)N(Nc3ccccc3)C2C(=O)N1c1ccccc1 (stereo not drawn)	1
